- system-under-test: UniProt P27338
- Sequence (P27338 whole entry): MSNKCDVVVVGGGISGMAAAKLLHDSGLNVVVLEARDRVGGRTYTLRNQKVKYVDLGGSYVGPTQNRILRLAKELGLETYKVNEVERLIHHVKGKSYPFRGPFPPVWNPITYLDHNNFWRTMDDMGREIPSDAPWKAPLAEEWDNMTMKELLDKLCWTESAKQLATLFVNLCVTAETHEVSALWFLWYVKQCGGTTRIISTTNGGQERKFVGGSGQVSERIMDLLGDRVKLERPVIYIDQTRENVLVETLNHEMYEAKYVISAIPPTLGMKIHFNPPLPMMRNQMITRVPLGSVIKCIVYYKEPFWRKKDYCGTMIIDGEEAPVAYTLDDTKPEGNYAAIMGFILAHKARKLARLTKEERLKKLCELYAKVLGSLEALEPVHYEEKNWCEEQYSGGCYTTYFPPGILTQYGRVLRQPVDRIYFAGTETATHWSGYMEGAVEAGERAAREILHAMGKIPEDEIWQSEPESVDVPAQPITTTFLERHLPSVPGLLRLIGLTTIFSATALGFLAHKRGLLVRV
- test-details: Inhibition of recombinant human MAO-B using p-tyramine as substrate preincubated for 15 mins followed by substrate addition by Amplex Red probe-based fluorometric analysis
pIC50: −log10 of the molar value.
parameter-measured: pIC50

Below: 5 molecules and their reported pIC50.
[
  {
    "record-smiles": "Cc1ccc2oc(=O)c(-c3cccc(OCCCCN(C)C)c3)cc2c1",
    "system-under-test": "UniProt P27338",
    "endpoint-result": 5.95
  },
  {
    "record-smiles": "Cc1ccc2oc(=O)c(-c3ccc(OCc4ccccc4)cc3)cc2c1",
    "system-under-test": "UniProt P27338",
    "endpoint-result": 6.98
  },
  {
    "record-smiles": "Cc1ccc2oc(=O)c(-c3cccc(OCCBr)c3)cc2c1",
    "system-under-test": "UniProt P27338",
    "endpoint-result": 5.61
  },
  {
    "record-smiles": "Cc1ccc2oc(=O)c(-c3ccc(OCc4cccc(F)c4)cc3)cc2c1",
    "system-under-test": "UniProt P27338",
    "endpoint-result": 6.76
  },
  {
    "record-smiles": "Cc1ccc2oc(=O)c(-c3cccc(OCc4cccc(F)c4)c3)cc2c1",
    "system-under-test": "UniProt P27338",
    "endpoint-result": 7.22
  }
]

(A) Cc1ccc2oc(=O)c(-c3cccc(OC(=O)c4ccccc4)c3)cc2c1
(B) Cc1ccc2oc(=O)c(-c3cccc4ccccc34)cc2c1
Task item: Would you mind telling me which has the lower recorded pIC50 between A and B ? Respond using the label that marks the chosen record.
Reply: B

(A) Cc1ccc2oc(=O)c(-c3cccc(OCCCCBr)c3)cc2c1
(B) Cc1ccc2oc(=O)c(-c3ccccc3OCc3ccccc3)cc2c1
Task item: Which shows the larger pIC50 value: A or B ? Respond using the label that marks the chosen record.
Reply: B

(I) Cc1ccc2oc(=O)c(-c3cccc(OCCCN(C)C)c3)cc2c1
(II) Cc1ccc2oc(=O)c(-c3cccc(OCc4ccccc4)c3)cc2c1
(III) Cc1ccc2oc(=O)c(-c3cccc(OCCCBr)c3)cc2c1
(IV) CC(=O)Oc1ccc(-c2cc3cc(C)ccc3oc2=O)cc1
Task item: List the 4 entries from lowest pIC50 to highest pIC50 value. Reply with the labels, ordered as the question asks.
Reply: III, I, IV, II

(I) Cc1ccc2oc(=O)c(-c3ccccc3OCc3cccc(F)c3)cc2c1
(II) CC(=O)Oc1ccccc1-c1cc2cc(C)ccc2oc1=O
Task item: Which shows the larger pIC50 value: I or II ? Respond using the label that marks the chosen record.
Reply: I

(a) CC(=O)Oc1cccc(-c2cc3cc(C)ccc3oc2=O)c1
(b) Cc1ccc2oc(=O)c(-c3cccs3)cc2c1
(c) Cc1ccc(S(=O)(=O)Oc2cccc(-c3cc4cc(C)ccc4oc3=O)c2)cc1
Task item: Order the 3 molecules from highest to lowest pIC50. Reply with the labels, ordered as the question asks.
Reply: c, a, b

(a) Cc1ccc2oc(=O)c(-c3c[nH]c4ccccc34)cc2c1
(b) Cc1ccc2oc(=O)c(-c3cccnc3)cc2c1
Task item: Would you mind telling me which has the lower recorded pIC50 between a and b ? Respond using the label that marks the chosen record.
Reply: a

====

- Organism: Homo sapiens
- test-details: Selectivity index, ratio of IC50 for recombinant human MAO-A to IC50 for recombinant human MAO-B
parameter-measured: Ratio IC50

(P) Cc1ccc2oc(=O)c(-c3cccc(OCCCCN(C)C)c3)cc2c1
(Q) Cc1ccc2oc(=O)c(-c3cccc(OCCCCBr)c3)cc2c1
Task item: Would you mind telling me which has the lower recorded Ratio IC50 between P and Q ? Respond using the label that marks the chosen record.
Reply: Q
(Q: 3.79, P: 23.6)

====

- system-under-test: Amine oxidase [flavin-containing] A (Homo sapiens, UniProt P21397)
- Sequence (P21397 whole entry): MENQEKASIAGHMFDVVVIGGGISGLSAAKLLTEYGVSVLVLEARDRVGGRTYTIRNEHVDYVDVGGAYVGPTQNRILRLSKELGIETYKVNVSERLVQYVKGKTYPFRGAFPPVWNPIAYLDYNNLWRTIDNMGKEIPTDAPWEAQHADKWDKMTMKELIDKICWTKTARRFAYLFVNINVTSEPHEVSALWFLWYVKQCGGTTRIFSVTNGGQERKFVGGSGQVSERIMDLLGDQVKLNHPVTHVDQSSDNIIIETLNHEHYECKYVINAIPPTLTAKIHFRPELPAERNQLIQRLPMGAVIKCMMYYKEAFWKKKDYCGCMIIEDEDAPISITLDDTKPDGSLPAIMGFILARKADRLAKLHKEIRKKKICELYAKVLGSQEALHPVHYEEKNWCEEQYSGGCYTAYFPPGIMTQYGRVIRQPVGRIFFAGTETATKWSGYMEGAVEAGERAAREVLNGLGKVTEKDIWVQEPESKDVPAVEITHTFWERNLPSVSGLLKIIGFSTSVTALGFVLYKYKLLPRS
- test-details: Inhibition of recombinant human MAO-A using p-tyramine as substrate preincubated for 15 mins followed by substrate addition by Amplex Red probe-based fluorometric analysis
parameter-measured: IC50 (µM)

[
  {
    "record-smiles": "Cc1ccc2oc(=O)c(-c3cccc(OCCBr)c3)cc2c1",
    "endpoint-result": 20.7
  },
  {
    "record-smiles": "Cc1ccc2oc(=O)c(-c3cccc(OCCCN(C)C)c3)cc2c1",
    "endpoint-result": 34.9
  }
]

(1) Cc1ccc2oc(=O)c(-c3cccc(OC(=O)c4ccccc4)c3)cc2c1
(2) Cc1ccc2oc(=O)c(-c3cccc(OCCCCN(C)C)c3)cc2c1
Task item: Which shows the larger IC50 value: 1 or 2 ? Respond using the label that marks the chosen record.
Reply: 2

(P) Cc1ccc2oc(=O)c(-c3cccc(OCCCBr)c3)cc2c1
(Q) Cc1ccc2oc(=O)c(-c3cccs3)cc2c1
Task item: Would you mind telling me which has the lower recorded IC50 between P and Q ? Respond using the label that marks the chosen record.
Reply: Q
(Q: 8.09 µM, P: 19.5 µM)

====

- system-under-test: Amine oxidase [flavin-containing] A (Homo sapiens, UniProt P21397)
- test-details: Inhibition of recombinant human MAO-A using p-tyramine as substrate preincubated for 15 mins followed by substrate addition by Amplex Red probe-based fluorometric analysis
pIC50: −log10 of the molar value.
parameter-measured: pIC50

[
  {
    "record-smiles": "Cc1ccc2oc(=O)c(-c3cccc4ccccc34)cc2c1",
    "system-under-test": "Amine oxidase [flavin-containing] A (Homo sapiens, UniProt P21397)",
    "pIC50": 4.26
  }
]

(1) Cc1ccc2oc(=O)c(-c3cccnc3)cc2c1
(2) Cc1ccc2oc(=O)c(-c3cccc(OCCCCBr)c3)cc2c1
Task item: Would you mind telling me which has the lower recorded pIC50 between 1 and 2 ? Respond using the label that marks the chosen record.
Reply: 2

====

- Species on record: Homo sapiens
- test-details: Selectivity index, ratio of IC50 for recombinant human MAO-A to IC50 for recombinant human MAO-B
parameter-measured: Ratio IC50

Below: 2 compounds and their reported Ratio IC50.
[
  {
    "record-smiles": "Cc1ccc2oc(=O)c(-c3cccc(OCCCBr)c3)cc2c1",
    "parameter-measured": "Ratio IC50",
    "endpoint-result": 5.3
  },
  {
    "record-smiles": "Cc1ccc2oc(=O)c(-c3c[nH]c4ccccc34)cc2c1",
    "parameter-measured": "Ratio IC50",
    "endpoint-result": 7.75
  }
]

(a) Cc1ccc2oc(=O)c(-c3cccc4ccccc34)cc2c1
(b) Cc1ccc2oc(=O)c(-c3cccc(OCCCN(C)C)c3)cc2c1
Task item: Would you mind telling me which has the lower recorded Ratio IC50 between a and b ? Respond using the label that marks the chosen record.
Reply: a
(a: 8.55, b: 38.6)

====

- Species on record: Homo sapiens
- test-details: Selectivity index, ratio of IC50 for recombinant human MAO-A to IC50 for recombinant human MAO-B
Recorded Ratio IC50, one value per entry.

Below: 2 compounds and their reported Ratio IC50.
[
  {
    "record-smiles": "Cc1ccc2oc(=O)c(-c3cccnc3)cc2c1",
    "Ratio IC50": 2.59
  },
  {
    "record-smiles": "Cc1ccc2oc(=O)c(-c3cccc(OC(=O)c4ccccc4)c3)cc2c1",
    "Ratio IC50": 24.2
  }
]

Task item: Return reported Ratio IC50. Input compound: "Cc1ccc2oc(=O)c(-c3ccccc3OCc3ccccc3)cc2c1"
Reply: > 390

Task item: Return reported Ratio IC50. Input compound: "Cc1ccc2oc(=O)c(-c3ccccc3OCc3cccc(F)c3)cc2c1"
Reply: > 395

Task item: Return reported Ratio IC50. Input compound: "Cc1ccc2oc(=O)c(-c3cccs3)cc2c1"
Reply: 2.16

Task item: Return reported Ratio IC50. Input compound: "CC(=O)Oc1cccc(-c2cc3cc(C)ccc3oc2=O)c1"
Reply: > 140

Task item: Return reported Ratio IC50. Input compound: "Cc1ccc2oc(=O)c(-c3cccc(OCCBr)c3)cc2c1"
Reply: 8.47

Task item: Return reported Ratio IC50. Input compound: "Cc1ccc2oc(=O)c(-c3ccc(OCc4cccc(F)c4)cc3)cc2c1"
Reply: > 572

Task item: Return reported Ratio IC50. Input compound: "Cc1ccc2oc(=O)c(-c3cccc(OCCN(C)C)c3)cc2c1"
Reply: > 459

Task item: Return reported Ratio IC50. Input compound: "Cc1ccc2oc(=O)c(-c3cccc(OCc4cccc(F)c4)c3)cc2c1"
Reply: > 1660

Task item: Return reported Ratio IC50. Input compound: "CC(=O)Oc1ccc(-c2cc3cc(C)ccc3oc2=O)cc1"
Reply: > 249

Task item: Return reported Ratio IC50. Input compound: "Cc1ccc2oc(=O)c(-c3cccc(OC(=O)N(C)C)c3)cc2c1"
Reply: > 22.6

Task item: Return reported Ratio IC50. Input compound: "Cc1ccc(S(=O)(=O)Oc2cccc(-c3cc4cc(C)ccc4oc3=O)c2)cc1"
Reply: > 328
